Target: human type 1 glycine transporter (GlyT1) (Homo sapiens, UniProt P48067)
Construct: Glioma T98G cells endogenously expressing human type 1 glycine transporter (GlyT1) were used; endogenous in cells; host or cells: T98G human glioma cells
Test: Glycine uptake inhibition experiment ([3H]glycine uptake in T98G cells)
Assay type: cell-based
Settings: [3H]glycine 250 nM, 15 min, room temperature, read-out: glycine uptake inhibitory activity (IC50 value)
MEASUREMENT NAME: IC50 (nM)
Give your result in nM as a bare value.

Ask: Please give measured IC50 of the following entry: CC(C)N(Cc1ccc(F)c(-c2ccc(F)c(F)c2)c1)C(=O)c1cn(C)cn1
Result: 18.8

Ask: Please give measured IC50 of the following entry: CC(C)N(Cc1ccc(F)c(-c2ccc(F)cc2)c1)C(=O)c1cn(C)cn1
Result: 8.89

Ask: Please give measured IC50 of the following entry: CC(C)N(Cc1ccc(F)c(-c2cccc(CO)c2)c1)C(=O)c1cn(C)cn1
Result: 25.9

Ask: Please give measured IC50 of the following entry: COCCN(Cc1ccc(F)c(-c2ccc(OC(F)(F)F)cc2)c1)C(=O)c1cn(C)cn1
Result: 41.5

Ask: Please give measured IC50 of the following entry: COc1ccc(-c2cc(CN(C(=O)c3cn(C)cn3)C(C)C)ccc2F)cc1
Result: 25.4

Ask: Please give measured IC50 of the following entry: CC(C)N(Cc1ccc(F)c(-c2ccc(OC(F)(F)F)cc2)c1)C(=O)c1cn(C)cn1
Result: 14.8

Ask: Please give measured IC50 of the following entry: CC(CO)N(Cc1ccc(F)c(-c2ccc(OC(F)(F)F)cc2)c1)C(=O)c1cn(C)cn1 (stereo not drawn)
Result: 30.7

Ask: Please give measured IC50 of the following entry: Cn1cnc(C(=O)N(Cc2ccc(F)c(-c3cccc(CO)c3)c2)C2CCC2)c1
Result: 4.33

Ask: Please give measured IC50 of the following entry: CC(C)N(Cc1ccc(F)c(-c2ccccc2F)c1)C(=O)c1cn(C)cn1
Result: 21.4

Ask: Please give measured IC50 of the following entry: CC(C)N(Cc1ccc(F)c(-c2cccc(OC(F)F)c2)c1)C(=O)c1cn(C)cn1
Result: 49.4

Ask: Please give measured IC50 of the following entry: CC(C)N(Cc1ccc(F)c(-c2ccccc2)c1)C(=O)c1cn(C)cn1
Result: 11.6

Ask: Please give measured IC50 of the following entry: CCOc1cccc(-c2cc(CN(C(=O)c3cn(C)cn3)C(C)C)ccc2F)c1
Result: 13.6

Ask: Please give measured IC50 of the following entry: CC(C)N(Cc1ccc(F)c(-c2cc(F)c(F)c(F)c2)c1)C(=O)c1cn(C)cn1
Result: 38.2

Ask: Please give measured IC50 of the following entry: COc1ccc(-c2cc(CN(C(=O)c3cn(C)cn3)C(C)C)ccc2F)cc1F
Result: 18.6

Ask: Please give measured IC50 of the following entry: CC(C)N(Cc1ccc(F)c(-c2cc(F)cc(F)c2)c1)C(=O)c1cn(C)cn1
Result: 22.6
